Data provenance is PubChem BioAssay (NCI).

Each entry below carries its reported growth.
Tested on: MDA-MB-231 breast
Assay: NCI-60 one-dose screen, 48 h (100 = growth as untreated, 0 = no growth, -100 = all killed)
Conditions: 10 µM unless noted
About 83,000 compounds went through this panel and 20% of them were active in at least one assay; those are over-represented in the sample as a whole.
Report the value in % with no unit label.

Known results for molecules:
molecule=Cc1cc(OCc2ccc(C(F)(F)F)cc2)c2c(c1)C(=O)C=C(NCCN1CCCC1)C2=O measured_on="MDA-MB-231 breast" assay_metric=growth meas_value=74.7
molecule=C=C1C(=O)O[C@H]2[C@H]1CC/C(Cn1cc(Cn3ccc4ccccc43)nn1)=C\CC[C@@]1(C)O[C@@H]21 measured_on="MDA-MB-231 breast" assay_metric=growth meas_value=-24.8
molecule=CSc1ccc(N=C=C(c2ccccc2)c2ccccc2)cc1 measured_on="MDA-MB-231 breast" assay_metric=growth meas_value=84.7
molecule=O=C(O)c1cn(C2CC2)c2cc(N3CCN(Cc4nc5c(cnn5-c5ccc([N+](=O)[O-])cc5)c(=O)[nH]4)CC3)c(F)cc2c1=O measured_on="MDA-MB-231 breast" assay_metric=growth meas_value=92.4
molecule=COc1cc(OC)c(/C=C/S(=O)(=O)Cc2cnc(OC)c(N)c2)c(OC)c1 measured_on="MDA-MB-231 breast" assay_metric=growth meas_value=11.9
molecule="CCN(CC)CCCC(C)NCCCNc1cccc2cccnc12 (centres undefined)" measured_on="MDA-MB-231 breast" assay_metric=growth meas_value=81.4
molecule="CN(C)c1ccc(C2Nc3ccccc3-n3cccc32)cc1 (centres undefined)" measured_on="MDA-MB-231 breast" assay_metric=growth meas_value=96.5
molecule=CCN(CC)c1ccc(/C=C/C2=[N+](C)c3ccccc3C2(C)C)cc1 measured_on="MDA-MB-231 breast" assay_metric=growth meas_value=7.79

We now examine a further molecule.
Task: Fill blank: measured growth of the molecule `CN1CCN(Cc2ccc(NC(=O)c3cncc(C#Cc4cnc(N)c5cccnc45)c3)cc2C(F)(F)F)CC1` is ____.
Result: -20
